Target: Serotonin 2B receptor (5-HT2BR) (Homo sapiens, UniProt P41595)
Construct: expressed in transfected cells; host or cells: HEK-293
Sequence (P41595 whole entry): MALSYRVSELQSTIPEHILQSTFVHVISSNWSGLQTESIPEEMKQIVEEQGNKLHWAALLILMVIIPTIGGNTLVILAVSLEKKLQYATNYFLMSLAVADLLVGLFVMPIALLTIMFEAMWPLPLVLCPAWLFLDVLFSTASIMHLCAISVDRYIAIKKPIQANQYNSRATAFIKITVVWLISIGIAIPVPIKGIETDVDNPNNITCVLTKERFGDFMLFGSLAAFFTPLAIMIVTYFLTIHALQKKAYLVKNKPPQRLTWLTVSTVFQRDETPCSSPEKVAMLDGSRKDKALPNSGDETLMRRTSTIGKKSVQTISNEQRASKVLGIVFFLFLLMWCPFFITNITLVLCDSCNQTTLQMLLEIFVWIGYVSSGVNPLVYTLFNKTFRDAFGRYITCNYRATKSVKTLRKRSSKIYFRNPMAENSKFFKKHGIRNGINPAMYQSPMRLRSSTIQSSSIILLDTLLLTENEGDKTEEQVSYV
Experiment: Functional assay in HEK-293 cells (IP1)
Format: cell-based
Conditions: read-out: Functional Assay (agonist) EC50; IP1; ligand 5-HT
Reported Metric: EC50

CCN(CC)C(=O)[C@@H]1C=C2c3cccc4[nH]c(Br)c(c34)C[C@H]2N(C)C1 > 10 µM

* * *

Biological target: Serotonin 1B receptor (5-HT1BR) (Homo sapiens, UniProt P28222)
Construct: expressed in transfected cells; host or cells: HEK-293
Sequence (P28222 whole entry): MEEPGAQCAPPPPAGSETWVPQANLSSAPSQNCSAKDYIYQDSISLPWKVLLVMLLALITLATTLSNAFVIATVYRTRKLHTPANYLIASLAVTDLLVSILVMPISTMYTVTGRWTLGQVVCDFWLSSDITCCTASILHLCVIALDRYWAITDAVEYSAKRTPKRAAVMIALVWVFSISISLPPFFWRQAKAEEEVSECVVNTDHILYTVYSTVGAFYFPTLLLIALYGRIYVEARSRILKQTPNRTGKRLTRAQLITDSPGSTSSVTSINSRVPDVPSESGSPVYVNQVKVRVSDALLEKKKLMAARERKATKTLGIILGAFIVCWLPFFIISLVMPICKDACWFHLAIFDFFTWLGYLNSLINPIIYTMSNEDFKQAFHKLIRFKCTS
Assay: Functional assay in HEK-293 cells (cAMP)
Format: cell-based
Conditions: Functional (Agonist) EC50 (nM), cAMP
Reported Metric: EC50 (nM)

CCN(CC)C(=O)[C@@H]1C=C2c3cccc4[nH]c(Br)c(c34)C[C@H]2N(C)C1 6.69
